The reported numbers originate from paper PMC8701324.

# study-target: MRG15 MRG domain, amino acids 155-323, Q9UBU8-2
# Sequence (Q9UBU8 194-362): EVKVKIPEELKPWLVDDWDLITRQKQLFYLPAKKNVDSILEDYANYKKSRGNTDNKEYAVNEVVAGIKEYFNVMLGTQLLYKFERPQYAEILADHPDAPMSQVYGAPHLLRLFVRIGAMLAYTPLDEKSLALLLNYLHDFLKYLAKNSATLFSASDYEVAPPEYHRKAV
# method-description: competition assay (fluorescence anisotropy, displacement of FAM-PALB2 from MRG)
# applied-conditions: chain shown with the change; 10 nM WT FAM-PALB2 peptide; parent: 9.8 ±2.6
recorded-endpoint: Ki (nM)
One number for each entry, in nM.

binder	Ki / nM
MLSLKQLLSFLSITDFQLSDEDFGPLKLEKVKSC [WT PALB2^597-630 peptide P615S]	52.8
MLSLKQLLSFLSITDFQLPDEDFGTLKLEKVKSC [WT PALB2^597-630 peptide P621T]	1.7

Please find the next binder below.
I have this binder here, MLSLKQLLSFLSITDFQLPHEDFGPLKLEKVKSC [WT PALB2^597-630 peptide D616H] , and I need its recorded Ki. 23.2
